Assay: NCI Yeast Anticancer Drug Screen. Data for the mlh1 rad18 strain (AID 175)
Details: S. cerevisiae mlh1 rad18 strain growth inhibition; at 50.0 µM
About 79,000 compounds went through this panel and 15% of them were active in at least one assay; those are over-represented in the sample as a whole. The source made the active and inactive calls. Rule as the data show it: active = growth inhibition above about 70%; inactive = the rest.
Labels: active, inactive

molecule=O=C(O)c1ccc(-c2ccc(O)cc2)cc1 class=inactive
molecule=CCOC(=O)C(C(=O)OCC)C(=O)C(C)(C)C class=inactive
molecule=C[C@]12CCC(=O)C(O)=C1CCC2=O class=inactive
molecule="CC12CCC(=O)C=C1CCC1C2C(=O)CC2(C)C1CCC2(O)C(=O)Cn1c(=O)cc[nH]c1=O (stereo unspecified)" class=inactive
molecule="CC(C)=CC1C(CBr)C1(C)C (stereo unspecified)" class=inactive
molecule=CC(C)c1ccc(CN)cc1 class=inactive
molecule="CCCOc1nc(N)c2cnn(C3CCCCO3)c2n1 (stereo unspecified)" class=inactive
molecule=Cc1nc2c3c4c(sc3nc(C)n2n1)CCCC4 class=inactive
molecule="CC(NC(=O)NCCCl)c1cccc2ccccc12 (stereo unspecified)" class=inactive
molecule=CCOC(=O)NCc1ccccc1 class=inactive
molecule=CCOC(=O)c1cc(CC)sc1N class=inactive
molecule=CCCCn1c(CCC)nc([N+](=O)[O-])c1Sc1ncn[nH]1 class=inactive
molecule=Cc1nc(N)nc(N)c1N1CCN(c2ccc(C(=O)NC(C(=O)O)C(=O)O)cc2)CC1 class=inactive
molecule=NS(=O)(=O)c1ccc(N=C2C=CC(=O)C=C2)cc1 class=inactive
molecule=COc1ccc(C(=O)Nc2ccccc2)cc1 class=inactive
molecule="OC12C=CC(CCCC1)O2 (stereo unspecified)" class=inactive
molecule=O=C1c2cc([N+](=O)[O-])sc2C(=O)c2c([N+](=O)[O-])csc21 class=active
molecule="COC(=O)CC1(C(=O)OC)Nc2ccccc2C(=O)O1 (stereo unspecified)" class=inactive
molecule="COc1ccc(/C=C/C2=CC(=O)CC(c3ccc(OC)c(OC)c3)C2)cc1OC (stereo unspecified)" class=inactive
molecule=Cc1nc(-c2nc(C)c(C(=O)NN(C)C)s2)sc1C(=O)NN(C)C class=inactive
molecule="CCCCCCC(NC(C)=O)C(=O)O (stereo unspecified)" class=inactive
molecule=CN(C)C(=O)c1cccnc1 class=inactive
molecule=SC1c2ccccc2-c2ccccc21 class=inactive
molecule=Cn1c(=O)c2c(n(C)c1=O)n1c(=O)c3ccccc3nc1n2C class=inactive
molecule="Cc1cc(=O)[nH]c(NNC(C#N)c2ccc([N+](=O)[O-])cc2)n1 (stereo unspecified)" class=inactive
molecule=NCCNCCCCCCCCCCCCOS(=O)(=O)O class=inactive
molecule="CC(O)CCNc1nnc2c3ccccc3n(C)c2n1 (stereo unspecified)" class=inactive
molecule="CCCCCCCCC1CCC(=O)O1 (stereo unspecified)" class=inactive
molecule=COC(=O)C1=C(O)c2cc(-c3ccccc3)c(-c3ccccc3)c(C#N)c2NC(=O)C1 class=inactive
molecule="COc1ccc(-c2cc(C)n(C3OC(CO)C(O)C(O)C3O)c(=S)c2C#N)cc1 (stereo unspecified)" class=inactive
molecule=CC1=C(c2cc(C(=O)Nc3cc(C)ccc3C)nc(N)n2)Sc2ccccc2N1 class=inactive
molecule=CC(=O)/C=C1\N(C)c2ccccc2C1(C)C class=inactive
molecule=N#Cc1ccc(CC(=O)O)cc1 class=inactive
molecule=O=C(O)CO class=inactive
molecule=CC(=O)O/C(=C\C(=O)[C@H]1CC[C@H]2[C@@H]3CC[C@@H]4C[C@H](OC(C)=O)CC[C@]4(C)[C@H]3C(=O)C[C@]12C)C(F)(F)F class=inactive
molecule=Nc1cccc(CNC(=O)COc2ccc(Cl)cc2C(=O)O)c1 class=inactive
molecule="O=C1c2ccccc2OC(Cl)(c2ccccc2)C1Cl (stereo unspecified)" class=inactive
molecule=Nc1cccc2c(S(=O)(=O)O)cccc12 class=inactive
molecule="O=C(ON=C1c2ccccc2C(Br)C(Br)c2ccccc21)c1ccccc1 (stereo unspecified)" class=inactive
molecule=COc1ccc(/C=N/NS(=O)(=O)c2ccc(/C=C3\NC(=O)N(C)C3=O)cc2)cc1 class=inactive
molecule=O=C(Cl)c1cc2ccccc2c2c(=O)c3ccc4cc5ccccc5cc4c3[nH]c12 class=inactive
molecule="COC(=O)NC(Cc1ccccc1)NC(=O)OC(C)(C)C (stereo unspecified)" class=inactive
molecule=CC(=O)CCCS(=O)(=O)c1ccccc1 class=inactive
molecule=CN=C(N)N/N=C(\c1ccccc1)c1ccc(Cl)cc1 class=active
molecule="N#CC1=C(N)CCC(C#N)(c2ccccc2)C1 (stereo unspecified)" class=inactive
molecule=O=C(Nc1ccc([N+](=O)[O-])cc1)OCc1ccccc1 class=inactive
molecule="COc1cccc(CC2C(=O)N=C(NC(C)=O)N2C)c1OC(C)=O (stereo unspecified)" class=inactive
molecule=COc1ccc(CC(=O)O)cc1OC class=inactive
molecule=Cc1cccc(-c2nc(-c3cnccn3)n(Cc3ccccc3)n2)c1 class=inactive
molecule="NCC1CCC(C(=O)O)CC1 (stereo unspecified)" class=inactive
molecule=CCOc1cc(C(=O)O)cc(OCC)n1 class=inactive

FYI, the data here is from PubChem BioAssay (NCI).
